# SYSTEM: Ba/F3 CLIP1-LTK (Homo sapiens, UniProt P29376)
# Construct: CLIP1 fragment (fusion partner); the other entry of the earlier key: CLIP1 (P30622, CAP-Gly domain-containing linker protein 1)
# TEST_SUMMARY: Ba/F3 CLIP1-LTK cell proliferation (CellTiter-Glo) assay
# EXPERIMENTAL_SETUP: 72 hours, read-out: Ba/F3 CLIP1-LTK cell viability IC50
MEASURED_METRIC: pIC50
Scale explanation: pIC50 corresponds to minus log10 of a concentration expressed in moles per litre.

Worked cases, pIC50 given:
[
  {
    "QUERY_SMILES": "CCn1nc(Cl)c2c1-c1cnc(N)c(c1)O[C@H](C)c1cc(F)ccc1-c1nn(C)cc1C2",
    "pIC50": 8.57
  },
  {
    "QUERY_SMILES": "CN1CCN(c2ccc(C(=O)Nc3n[nH]c4ccc(Cc5cc(F)cc(F)c5)cc34)c(NC3CCOCC3)c2)CC1",
    "pIC50": 6.79
  }
]

Consider the additional compound presented here.
Fill in: pIC50 of Cc1cc(Nc2ncc(Cl)c(Nc3ccccc3S(=O)(=O)C(C)C)n2)c(OC(C)C)cc1C1CCNCC1 is ___ 6.66
